Collected literature values of log10(Ki) measured for hCRTH2 receptor (Homo sapiens (Human), UniProt Q9Y5Y4).
Base-10 log of Ki, unit nM.

# example entries with known answers
{"columns": ["compound", "log10(Ki)"],
 "data": [
  ["Cc1cc(Cn2nc(C)c(CC(=O)O)c2C)ccc1-c1nc2ccccc2[nH]1", 1.34],
  ["Cc1nn(Cc2ccc(-c3nc4cc(Cl)ccc4n3C)cc2)c(C)c1CC(=O)O", 2.25],
  ["O=C(O)CN1C(=O)C2(CC(=O)N(CC3COc4ccccc4O3)C2=O)c2cc(Cl)ccc21 (stereo not shown)", 2.33],
  ["Cc1c(Cc2cccn2S(=O)(=O)c2ccccc2)c2cc(F)ccc2n1CC(=O)O", 0.00],
  ["O=C(O)CCCCc1cc2cc(C(=O)N[C@@H]3CCCc4cc(F)ccc43)ccc2c(=O)n1-c1ccc(F)cc1", 0.81]
]}

Lookup: Entry Cc1c(CC(=O)O)c2cc(C#N)ccn2c1Sc1ccc(S(C)(=O)=O)cc1Cl has what log10(Ki)?
Found: 0.46

Lookup: Entry COc1ccccc1-n1c(CCCCC(=O)O)cc2cc(C(=O)N[C@H](C)c3ccc(F)cc3)ccc2c1=O (single isomer, unassigned) has what log10(Ki)?
Found: 2.56

----------
Collected literature values of Ki measured for hCRTH2 receptor (Homo sapiens (Human)).

# example entries with known answers
{"columns": ["molecule", "Ki"],
 "data": [
  ["Cc1nn(Cc2ccc(-c3nc4ccccc4[nH]3)cc2)c(C)c1CC(=O)O", "13.4 nM"],
  ["Cc1c(C2(C)c3ccccc3S(=O)(=O)N2Cc2cccc(F)c2)c2ccccc2n1CC(=O)O (centres unmarked)", "< 1000 nM"],
  ["CCCc1nc2cc(N(Cc3ccccc3)C(=O)c3cccs3)ccc2n1CC(=O)O", "< 100 nM"]
]}

Alright, here's another molecule for you.
Lookup: Entry CCCc1nc2cc(N(Cc3ccccc3)C(=O)c3ccc(Cl)cc3)ccc2n1CC(=O)O has what Ki?
Found: < 1000 nM

----------
Collected literature values of pKi measured for hCRTH2 receptor (Homo sapiens (Human)).
pKi: −log10 of the molar value.

{"columns": ["molecule", "target_desc", "pKi"],
 "data": [
  ["CCCc1nc2cc(N(Cc3ccc(F)cc3)C(=O)c3ccccc3)ccc2n1CC(=O)O", "hCRTH2 receptor (Homo sapiens (Human))", "> 6.00"],
  ["CS(=O)(=O)c1ccc(-c2cn(C3CCc4c(CC(=O)O)c5ccccc5n4C3)nn2)cc1 (stereo not shown)", "hCRTH2 receptor (Homo sapiens (Human))", "< 7.00"],
  ["O=C(O)Cn1cc(C2c3ccccc3S(=O)(=O)N2Cc2ccc3ccccc3n2)c2ccccc21 (stereo not shown)", "hCRTH2 receptor (Homo sapiens (Human))", "> 5.00"]
]}

Alright, here's another molecule for you.
Lookup: Return pKi measured with hCRTH2 receptor (Homo sapiens (Human)) given this molecule: CCCc1nc2cc(N(Cc3ccccc3)C(=O)c3ccc(F)cc3)ccc2n1CC(=O)O
Found: > 6.00

----------
Collected literature values of Ki measured for hCRTH2 receptor (Homo sapiens (Human)).

# example entries with known answers
{"columns": ["compound", "Ki"],
 "data": [
  ["CCCc1nc2cc(N(CC3COc4ccccc4O3)S(=O)(=O)c3ccc(F)cc3)ccc2n1CC(=O)O (stereo not drawn)", "< 100 nM"],
  ["CC1C(n2nncc2Cc2ccc(F)cc2)CCc2c(CC(=O)O)c3cccc(F)c3n21 (single isomer, unassigned)", "> 100 nM"]
]}

Lookup: Return Ki measured with hCRTH2 receptor (Homo sapiens (Human)) given this compound: Cc1c(C2=NN(CCC(C)C)S(=O)(=O)c3ccccc32)c2ccccc2n1CC(=O)O
Found: < 100 nM
